Molecular target: S1P3 (Homo sapiens)
Construct: expressed in transfected cells
Assay: FLIPR calcium assay, cells expressing S1P3 and a G-protein
Format: cell-based
Details: value in parentheses below the EC50; antagonism of sphingosine 1-phosphate signal
Description: Novel compounds having this general structure were synthesized and tested for sphingosine 1-phosphate receptor (S1P) activity using the FLIPR assay. […] Baseline fluorescence readings are taken prior to addition the compound to be tested. […] The increase in intracellular calcium causes an increase in the fluorescence of the cells, due to the presence of fluo-4. This fluorescence increase is recorded by the FLIPR TETRA. […]
Counter-ions that a name gives are not always drawn.
quantity.kind: FLIPR (% Antagonism) S1P3

Observe how each entry below is paired with its result.
Cl.O=C(Nc1ccc(Br)cn1)C(Oc1ccc(Cl)cc1)c1ccc(Cl)cc1 (centres unmarked) [Example 8] :: (97) %
COc1ccc(OC(C(=O)Nc2ccc(Cl)cn2)c2ccc(Cl)cc2)cc1.Cl (centres unmarked) [Example 3] :: (98) %
Cc1ccc(SC(C(=O)Nc2ccc(Cl)cn2)c2ccc(Cl)cc2)cc1C (centres unmarked) [Example 15, hydrochloride] :: (98) %
O=C(Nc1ccc(Cl)cn1)C(Sc1ccc(Cl)cc1)c1ccc(Cl)cc1 (centres unmarked) [Example 23, hydrochloride] :: (97) %
Cc1nc(NC(=O)C(Cc2ccccc2)c2ccccc2)ccc1Br (centres unmarked) [Example 31, hydrochloride] :: (100) %

Now for a further molecule.
Data request, read-out FLIPR (% Antagonism) S1P3, for O=C(Nc1ccc(Br)cn1)C(Cc1ccccc1)c1ccccc1 (centres unmarked) [Example 30, hydrochloride]
(100) %

====

Molecular target: S1P3 (Homo sapiens, UniProt Q99500)
Construct: expressed in transfected cells
Sequence (Q99500 whole entry, species assumed): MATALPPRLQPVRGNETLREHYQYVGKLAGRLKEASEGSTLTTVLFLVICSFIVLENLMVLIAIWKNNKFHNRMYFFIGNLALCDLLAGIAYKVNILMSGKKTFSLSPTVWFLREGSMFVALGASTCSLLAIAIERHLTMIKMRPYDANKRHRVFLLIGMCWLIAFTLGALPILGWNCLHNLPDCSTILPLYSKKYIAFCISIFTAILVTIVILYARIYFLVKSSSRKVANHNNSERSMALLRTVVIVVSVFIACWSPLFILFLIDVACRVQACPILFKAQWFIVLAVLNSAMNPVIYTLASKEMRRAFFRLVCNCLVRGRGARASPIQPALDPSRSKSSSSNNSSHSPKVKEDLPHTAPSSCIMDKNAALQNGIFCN
Assay: FLIPR calcium assay, cells expressing S1P3 and a G-protein
Format: cell-based
Conditions: fluo-4 calcium signal compared to sphingosine 1-phosphate; antagonist mode
Protocol: Novel compounds having this general structure were synthesized and tested for sphingosine 1-phosphate receptor (S1P) activity using the FLIPR assay. […] Baseline fluorescence readings are taken prior to addition the compound to be tested. […] The increase in intracellular calcium causes an increase in the fluorescence of the cells, due to the presence of fluo-4. This fluorescence increase is recorded by the FLIPR TETRA. […]
Under this convention, 1 denotes EC50 strictly below 200 nM and 0 denotes EC50 at or above 200 nM.

EC50 under 200 nM? Item: Cl.O=C(Nc1ccc(Br)cn1)C(Oc1ccc(Br)cc1)c1ccc(Cl)cc1 (stereo not shown) [Example 5, hydrochloride]
1

====

Biological target: S1P3 (Homo sapiens, UniProt Q99500)
Construct: expressed in transfected cells
Assay: FLIPR calcium assay, cells expressing S1P3 and a G-protein
Type: cell-based
Conditions: value in parentheses below the EC50; antagonism of sphingosine 1-phosphate signal
Structures can show the parent of a compound that is named as a salt.
quantity.kind: FLIPR (% Antagonism) S1P3

Observe how each entry below is paired with its result.
Cl.O=C(Nc1ccc(Br)cn1)C(Oc1ccc(Br)cc1)c1ccc(Cl)cc1 (stereo not shown) :: (97) %
Cl.O=C(Nc1ccc(F)cn1)C(Oc1ccc(Br)cc1)c1ccc(Cl)cc1 (stereo not shown) :: (97) %
O=C(Nc1ccc(Br)cn1)C(Sc1cccc(Cl)c1)c1ccccc1 (stereo not shown) [Example 20, hydrochloride] :: (97) %
Cc1ccc(SC(C(=O)Nc2ccc(Cl)cn2)c2ccc(Cl)cc2)cc1 (stereo not shown) [Example 17, hydrochloride] :: (99) %
O=C(Nc1ccc(Cl)cn1)C(Sc1ccc(Cl)c(Cl)c1)c1ccccc1 (stereo not shown) :: (97) %

Now for a further compound.
Data request, read-out FLIPR (% Antagonism) S1P3, for O=C(Nc1ccc(Br)cn1)C(Sc1ccc(Br)cc1)c1ccccc1 (stereo not shown)
(99) %

====

Target: S1P3 (Homo sapiens, UniProt Q99500)
Construct: expressed in transfected cells
Test: FLIPR calcium assay, cells expressing S1P3 and a G-protein
Format: cell-based
Conditions: fluo-4 calcium signal compared to sphingosine 1-phosphate; antagonist mode
Where a name gives a salt, the structure may show the parent alone.
quantity.kind: EC50 (nM)
Express your answer in nM, writing the number without its unit.

Observe how each entry below is paired with its result.
Cl.O=C(Nc1ccc(Cl)cn1)C(Oc1ccc(Cl)cc1)c1ccc(Cl)cc1 (stereo not drawn) [Example 9, hydrochloride] :: 27
O=C(Nc1ccc(I)cn1)C(Sc1ccccc1)c1ccccc1 (stereo not drawn) [Example 28] :: 310
N#Cc1ccc(NC(=O)C(Cc2ccccc2)c2ccccc2)nc1 (stereo not drawn) [Example 34, hydrochloride] :: 1500

Data request, read-out EC50, for COc1ccc(SC(C(=O)Nc2ccc(Cl)cn2)c2ccc(Cl)cc2)cc1 (stereo not drawn) [Example 12, hydrochloride]
376

Data request, read-out EC50, for O=C(Nc1ccc(Br)cn1)C(Sc1ccc(Cl)c(Cl)c1)c1ccccc1 (stereo not drawn) [Example 18]
133

Data request, read-out EC50, for O=C(Nc1ccc(Cl)cn1)C(Cc1ccccc1)c1ccccc1 (stereo not drawn) [Example 29, hydrochloride]
198

Data request, read-out EC50, for Cl.O=C(Nc1ccc(Cl)cn1)C(Oc1ccc(Br)cc1)c1ccc(Cl)cc1 (stereo not drawn) [Example 6, hydrochloride]
103

Data request, read-out EC50, for O=C(Nc1ccc(Cl)cn1)C(Sc1ccc(Cl)cc1)c1ccc(Cl)cc1 (stereo not drawn) [Example 23, hydrochloride]
173

Data request, read-out EC50, for Cc1cc(OC(C(=O)Nc2ccc(Cl)cn2)c2ccc(Cl)cc2)ccc1Cl.Cl (stereo not drawn) [Example 1, hydrochloride]
128

Data request, read-out EC50, for O=C(Nc1ccc(Cl)cn1)C(Sc1ccc(Cl)cc1)c1ccc(F)cc1 (stereo not drawn) [Example 26]
166

====

Listing of recorded EC50 by entry.
Molecular target: S1P3 (Homo sapiens, UniProt Q99500)
Construct: expressed in transfected cells
Assay: FLIPR calcium assay, cells expressing S1P3 and a G-protein
Format: cell-based
Conditions: fluo-4 calcium signal compared to sphingosine 1-phosphate; antagonist mode
Where a name gives a salt, the structure may show the parent alone.
Express your answer in nM, writing the number without its unit.

COc1ccc(SC(C(=O)Nc2ccc(Br)cn2)c2ccc(Cl)cc2)cc1.Cl (centres unmarked) [Example 11, hydrochloride] :: 361
Cc1ccc(SC(C(=O)Nc2ccc(Br)cn2)c2ccc(Cl)cc2)cc1 (centres unmarked) [Example 16, hydrochloride] :: 256
O=C(Nc1ccc(Cl)cn1)C(Sc1ccc(Br)cc1)c1ccccc1 (centres unmarked) [Example 24] :: 230
Cc1ccc(SC(C(=O)Nc2ccc(Cl)cn2)c2ccc(Cl)cc2)cc1 (centres unmarked) [Example 17, hydrochloride] :: 322
Cl.O=C(Nc1ccc(Br)cn1)C(Oc1ccc(Cl)cc1)c1ccc(Cl)cc1 (centres unmarked) [Example 8, hydrochloride] :: 15
O=C(Nc1ccc(Br)cn1)C(Sc1ccc(Br)cc1)c1ccccc1 (centres unmarked) [Example 25] :: 286

Param readout= EC50; system= S1P3 (Homo sapiens, UniProt Q99500); entry= O=C(Nc1ccc(Br)cn1)C(Cc1ccccc1)c1ccccc1 (centres unmarked) [Example 30, hydrochloride] ; returns value.
162

Param readout= EC50; system= S1P3 (Homo sapiens, UniProt Q99500); entry= O=C(Nc1ccc(Br)cn1)C(Sc1ccccc1)c1ccccc1 (centres unmarked) [Example 10, hydrochloride] ; returns value.
256

Param readout= EC50; system= S1P3 (Homo sapiens, UniProt Q99500); entry= Cl.O=C(Nc1ccc(F)cn1)C(Oc1ccc(Cl)cc1)c1ccc(Cl)cc1 (centres unmarked) [Example 7, hydrochloride] ; returns value.
316

Param readout= EC50; system= S1P3 (Homo sapiens, UniProt Q99500); entry= O=C(Nc1ccc(Br)cn1)C(Sc1ccc(Cl)cc1)c1ccc(Cl)cc1 (centres unmarked) [Example 22, hydrochloride] ; returns value.
104

Param readout= EC50; system= S1P3 (Homo sapiens, UniProt Q99500); entry= O=C(Nc1ccc(Cl)cn1)C(Sc1ccc(F)cc1)c1ccc(Cl)cc1 (centres unmarked) [Example 13, hydrochloride] ; returns value.
198

====

Target: S1P3 (Homo sapiens)
Construct: expressed in transfected cells
Test: FLIPR calcium assay, cells expressing S1P3 and a G-protein
Format: cell-based
Details: fluo-4 calcium signal compared to sphingosine 1-phosphate; antagonist mode
Procedure: Novel compounds having this general structure were synthesized and tested for sphingosine 1-phosphate receptor (S1P) activity using the FLIPR assay. […] Baseline fluorescence readings are taken prior to addition the compound to be tested. […] The increase in intracellular calcium causes an increase in the fluorescence of the cells, due to the presence of fluo-4. This fluorescence increase is recorded by the FLIPR TETRA. […]
Where a name gives a salt, the structure may show the parent alone.
Listing of recorded EC50 by entry.
Express your answer in nM, writing the number without its unit.

Observe how each entry below is paired with its result.
Cc1ccc(SC(C(=O)Nc2ccc(Cl)cn2)c2ccc(Cl)cc2)cc1C (stereo not drawn) [Example 15, hydrochloride] :: 240
Cl.O=C(Nc1ccc(F)cn1)C(Oc1ccc(Br)cc1)c1ccc(Cl)cc1 (stereo not drawn) [Example 4, hydrochloride] :: 325

Data request, read-out EC50, for COc1ccc(OC(C(=O)Nc2ccc(Cl)cn2)c2ccc(Cl)cc2)cc1.Cl (stereo not drawn) [Example 3, hydrochloride]
166

Data request, read-out EC50, for Cc1ccc(NC(=O)C(Cc2ccccc2)c2ccccc2)nc1 (stereo not drawn) [Example 32, hydrochloride]
725

Data request, read-out EC50, for O=C(Nc1ccc(Cl)cn1)C(Sc1ccc(Cl)c(Cl)c1)c1ccccc1 (stereo not drawn) [Example 19]
106

Data request, read-out EC50, for Cc1nc(NC(=O)C(Cc2ccccc2)c2ccccc2)ccc1Br (stereo not drawn) [Example 31, hydrochloride]
201

Data request, read-out EC50, for O=C(Nc1ccc(Cl)cn1)C(Sc1cccc(Cl)c1)c1ccccc1 (stereo not drawn) [Example 21, hydrochloride]
208

Data request, read-out EC50, for Cc1ccc(OC(C(=O)Nc2ccc(Br)cn2)c2ccc(Cl)cc2)cc1.Cl (stereo not drawn) [Example 2, hydrochloride]
185
